Values from patent US20240316047A1

- system.under.test: Human recombinant DHX9 protein (Homo sapiens (Human), UniProt Q08211)
- Sequence (Q08211 whole entry): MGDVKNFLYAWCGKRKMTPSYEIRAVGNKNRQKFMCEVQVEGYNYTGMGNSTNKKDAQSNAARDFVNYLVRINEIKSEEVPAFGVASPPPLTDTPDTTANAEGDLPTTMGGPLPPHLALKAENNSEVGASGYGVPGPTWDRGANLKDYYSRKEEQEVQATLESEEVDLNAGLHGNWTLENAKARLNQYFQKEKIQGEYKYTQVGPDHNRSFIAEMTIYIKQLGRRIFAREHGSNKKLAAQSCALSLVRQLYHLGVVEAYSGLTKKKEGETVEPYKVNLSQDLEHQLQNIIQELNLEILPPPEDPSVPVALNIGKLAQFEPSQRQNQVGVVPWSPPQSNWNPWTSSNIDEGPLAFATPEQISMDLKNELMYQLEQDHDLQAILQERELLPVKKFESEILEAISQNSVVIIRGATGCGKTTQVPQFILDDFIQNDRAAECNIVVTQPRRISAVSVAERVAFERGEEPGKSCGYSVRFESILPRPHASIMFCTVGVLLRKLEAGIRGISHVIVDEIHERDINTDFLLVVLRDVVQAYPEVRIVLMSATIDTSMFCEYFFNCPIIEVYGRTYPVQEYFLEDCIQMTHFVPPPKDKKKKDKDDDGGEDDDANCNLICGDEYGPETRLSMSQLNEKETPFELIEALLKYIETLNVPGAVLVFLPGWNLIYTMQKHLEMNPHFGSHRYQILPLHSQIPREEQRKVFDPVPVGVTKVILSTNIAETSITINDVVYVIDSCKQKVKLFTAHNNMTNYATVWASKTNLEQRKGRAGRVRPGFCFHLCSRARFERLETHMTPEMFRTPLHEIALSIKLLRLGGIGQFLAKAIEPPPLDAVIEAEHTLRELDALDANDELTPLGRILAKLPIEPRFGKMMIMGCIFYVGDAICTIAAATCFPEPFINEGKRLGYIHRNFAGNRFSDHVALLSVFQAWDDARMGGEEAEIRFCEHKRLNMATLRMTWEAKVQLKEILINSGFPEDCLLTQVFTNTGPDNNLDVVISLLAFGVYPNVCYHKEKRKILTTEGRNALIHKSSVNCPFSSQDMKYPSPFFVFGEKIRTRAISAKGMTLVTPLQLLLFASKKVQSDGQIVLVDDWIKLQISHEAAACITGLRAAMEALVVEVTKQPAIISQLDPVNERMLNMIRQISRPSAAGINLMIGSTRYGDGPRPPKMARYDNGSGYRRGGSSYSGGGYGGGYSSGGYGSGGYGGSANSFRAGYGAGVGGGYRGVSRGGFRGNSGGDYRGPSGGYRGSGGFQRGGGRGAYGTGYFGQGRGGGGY
- assay.explanation: DHX9 ATPase assay (ADP-Glo)
- Type: biochemical
measured.metric: DHX9 Biochemical Max Inhibition (%)

# molecule, unit.of.measurement, DHX9 Biochemical Max Inhibition
rows = [
    ("CS(=O)(=O)Nc1cc(Cl)cc(NC(=O)c2cc(-c3cccc(F)c3)cs2)c1 [Example 108]", "%", 59.8),
    ("CSc1ccc(-n2cc(C(=O)Nc3cc(Cl)cc(NS(C)(=O)=O)c3)cn2)nc1 [Example 218]", "%", 59),
    ("CS(=O)(=O)Nc1cc(Cl)cc(NC(=O)c2cnn(C3CCNCC3)c2)c1 [Example 145]", "%", 67.9),
]

* * *

- system.under.test: Human recombinant DHX9 protein (Homo sapiens (Human), UniProt Q08211)
- assay.explanation: DHX9 ATPase assay (ADP-Glo)
- Format: biochemical
measured.metric: DHX9 Biochemical Max Inhibition (%)

# item.smiles, unit.of.measurement, DHX9 Biochemical Max Inhibition
measured = [
    ("CS(=O)(=O)Nc1cc(Cl)cc(NC(=O)c2cc(C3CCNCC3)cs2)c1", "%", 73.2),
    ("Cc1sc(C(=O)Nc2cc(Cl)cc(NS(C)(=O)=O)c2)cc1-c1ncc(C(F)(F)F)cc1C#N", "%", 63.5),
    ("Cc1cccn2cc(C(=O)Nc3cc(Cl)cc(NS(C)(=O)=O)c3)cc12", "%", 66.5),
]

* * *

- system.under.test: Human recombinant DHX9 protein (Homo sapiens (Human), UniProt Q08211)
- assay.explanation: DHX9 ATPase assay (ADP-Glo)
- Format: biochemical
measured.metric: DHX9 Biochemical Max Inhibition

# molecule, measured.metric, test.result
data = [
    ("Cc1cc(C(=O)Nc2cc(Cl)cc(NS(C)(=O)=O)c2)cn1-c1ccc(C#N)cn1 [Example 425]", "DHX9 Biochemical Max Inhibition", 90),
    ("CS(=O)(=O)Nc1cc(Cl)cc(NC(=O)c2cc(C(=O)N3CCN(c4ccccc4)CC3)n(-c3ccccn3)c2)c1 [Example 654]", "DHX9 Biochemical Max Inhibition", 72.7),
    ("CS(=O)(=O)Nc1cc(Cl)cc(NC(=O)c2cc(CO)n(-c3ncccc3OCc3cncc(F)c3)c2)c1 [Example 723]", "DHX9 Biochemical Max Inhibition", 84.3),
    ("COC1CCN(c2ccc(-c3cc(C(=O)Nc4cc(Cl)cc(NS(C)(=O)=O)c4)cn3C)nc2)CC1 [Example 515]", "DHX9 Biochemical Max Inhibition", 73.9),
    ("Cn1cc(C(=O)Nc2cc(Cl)cc(NS(C)(=O)=O)c2)cc1-c1ncccc1Oc1cccnc1 [Example 655]", "DHX9 Biochemical Max Inhibition", 67.8),
    ("Cn1cc(C(=O)Nc2cc(Cl)cc(NS(C)(=O)=O)c2)cc1-c1ncc(OC2CN(CC(F)F)C2)cc1F [Example 614]", "DHX9 Biochemical Max Inhibition", 70.4),
    ("CC(C)(C)Oc1cnc(-c2cc(C(=O)Nc3cc(Cl)cc(NS(C)(=O)=O)c3)sc2CO)nc1 [Example 686]", "DHX9 Biochemical Max Inhibition", 66.6),
]

* * *

- system.under.test: Human recombinant DHX9 protein (Homo sapiens (Human), UniProt Q08211)
- assay.explanation: DHX9 ATPase assay (ADP-Glo)
- assay.conditions: read-out: DHX9 Biochemical Inflection Point
pIC50: −log10 of the molar value.
measured.metric: pIC50

# compound, pIC50
rows = [
    ("CCn1cc(C(=O)Nc2cc(Cl)cc(NS(C)(=O)=O)c2)cc1-c1ccc(N2CCOCC2)cn1 [Example 274]", 7.49),
    ("Cc1cc(C(=O)Nc2cc(Cl)cc(NS(C)(=O)=O)c2)cn1-c1ccc(N2CC(F)(F)C2)cn1 [Example 399]", 7.94),
    ("Cc1cc(C(=O)Nc2cc(Cl)cc(NS(C)(=O)=O)c2)cn1-c1ncc(N2CCC2)cn1 [Example 398]", 8.06),
]

(I) Cc1cc(C(=O)Nc2cc(Cl)cc(NS(C)(=O)=O)c2)cn1-c1ccc(N2CCOCC2)cn1 [Example 93]
(II) CS(=O)(=O)Nc1cc(Cl)cc(NC(=O)c2cc(CN)n(-c3ccccn3)c2)c1 [Example 181]
(III) Cc1cc(C(=O)Nc2cc(Cl)cc(NS(C)(=O)=O)c2)cn1-c1ccc(N(C)C2CCOC2)cn1 (centres unmarked) [Example 674]
(IV) Cc1cccnc1-c1cc(C(=O)Nc2cc(F)cc(NS(C)(=O)=O)c2)sc1C [Example 333]
## Input Order the 4 compounds from highest to lowest pIC50. Response format: the labels, sorted as the prompt asks.
## Output I, III, II, IV
(I: 8.77, III: 8.41, II: 8.02, IV: 7.45)

* * *

- system.under.test: Human recombinant DHX9 protein (Homo sapiens (Human))
- assay.explanation: DHX9 ATPase assay (ADP-Glo)
- Assay type: biochemical
measured.metric: DHX9 Biochemical Max Inhibition

# compound, DHX9 Biochemical Max Inhibition
records = [
    ("CN1CC(Oc2cnc(-c3cc(C(=O)Nc4cc(Cl)cc(NS(C)(=O)=O)c4)cn3CC(F)(F)F)c(F)c2)C1 [Example 638]", 70.5),
    ("Cn1cc(C(=O)Nc2cc(Cl)cc(NS(C)(=O)=O)c2)cc1-c1ncc(N2CC3(C2)CC(F)(F)C3)cc1F [Example 702]", 70.8),
    ("Cc1sc(C(=O)Nc2cc(Cl)cc(NS(C)(=O)=O)c2)cc1-c1ncc(N2CC(C(F)(F)F)C2)cc1F [Example 460]", 60.9),
    ("Cn1cc(C(=O)Nc2cc(Cl)cc(NS(C)(=O)=O)c2)cc1-c1ncc(N2CCC(F)(F)C2)cc1F [Example 525]", 63.3),
    ("CS(=O)(=O)Nc1cc(Cl)cc(NC(=O)c2cc(-c3ncccc3F)n(CC(F)(F)F)c2)c1 [Example 564]", 77.8),
    ("COc1ccc(-c2cc(C(=O)Nc3cc(Cl)cc(NS(C)(=O)=O)c3)cn2C)nc1 [Example 573]", 82.8),
    ("COc1cc(N2CC(F)(F)C2)cnc1-c1cc(C(=O)Nc2cc(Cl)cc(NS(=O)(=O)CCO)c2)sc1C [Example 528]", 61.5),
]

* * *

- system.under.test: Human recombinant DHX9 protein (Homo sapiens (Human))
- assay.explanation: DHX9 ATPase assay (ADP-Glo)
- Assay type: biochemical
measured.metric: DHX9 Biochemical Max Inhibition

# compound, measured.metric, test.result
data = [
    ("Cc1sc(C(=O)Nc2cc(Cl)cc(NS(C)(=O)=O)c2)cc1-c1ncc(N2CC(F)(F)C2)cc1C#N [Example 715]", "DHX9 Biochemical Max Inhibition", 67.8),
    ("Cn1cc(C(=O)Nc2cc(Cl)cc(NS(C)(=O)=O)c2)cc1-c1ncc(F)cc1C#N [Example 546]", "DHX9 Biochemical Max Inhibition", 73.6),
    ("Cc1cc(C(=O)Nc2cc(Cl)cc(NS(C)(=O)=O)c2)cn1-c1ccc(N2CC3CC3C2)cn1 (stereo not drawn) [Example 411]", "DHX9 Biochemical Max Inhibition", 74.2),
    ("Cc1noc(C)c1COc1cc(F)cnc1-c1cc(C(=O)Nc2cc(Cl)cc(NS(C)(=O)=O)c2)cn1C [Example 725]", "DHX9 Biochemical Max Inhibition", 74),
    ("Cc1cc(C(=O)Nc2cc(Cl)cc(NS(C)(=O)=O)c2)cn1-c1ccc(OC2COC2)cn1 [Example 668]", "DHX9 Biochemical Max Inhibition", 82.3),
]

* * *

- system.under.test: Human recombinant DHX9 protein (Homo sapiens (Human))
- assay.explanation: DHX9 ATPase assay (ADP-Glo)
- Assay type: biochemical
measured.metric: DHX9 Biochemical Max Inhibition (%)

# molecule, DHX9 Biochemical Max Inhibition [%]
measured = [
    ("CS(=O)(=O)Nc1cc(Cl)cc(NC(=O)c2cnn(CCc3ccccc3)c2)c1", 60.6),
    ("CS(=O)(=O)Nc1cc(Cl)cc(NC(=O)c2cccc(-c3ccncc3)c2)c1", 59.6),
    ("Cc1cccc(C#N)c1-n1cc(C(=O)Nc2cc(Br)cc(NS(C)(=O)=O)c2)cn1", 60.3),
    ("CC1CN(c2ccc(-n3cc(C(=O)Nc4cc(Cl)cc(NS(C)(=O)=O)c4)cn3)nc2)CCO1 (stereo not drawn)", 61.1),
    ("CS(=O)(=O)Nc1cc(Cl)cc(NC(=O)c2cnn([C@@H]3CCCC[C@@H]3O)c2)c1 (relative stereo)", 59.7),
    ("Cc1ccc(C(=O)Nc2cc(Br)cc(NS(C)(=O)=O)c2)cc1-n1cccn1", 61),
]
